- experimental.details: basal MM1S mitochondrial membrane potential changes, profiling panel, cell-based, JC-1 fluorescence, 24 h, 100 nL compound (AID 1170); note: test concentration not given here
- condition.description: higher = more signal
z-score values for the compounds below.

>  <compound>
C[N+](C)(C)CCCCCCNC(=O)[C@H]1C[C@H]2C(=O)NCC(=O)N2[C@H]1c1cccc(OCCO)c1

>  <z-score>
0.127

$$$$
>  <compound>
CC[C@H](C)C(=O)O[C@H]1CC[C@]2(C)C3=C(CCC2C1(C)C)[C@]1(C)CC[C@H]([C@H](C)CCCC(C)C)[C@@]1(C)CC3 (some centres undefined)

>  <z-score>
0.628

$$$$
>  <compound>
COc1ccc(NC(=O)O[C@H]2[C@H](OC(=O)Nc3ccc4c(c3)OCO4)[C@H](OC(=O)Nc3ccc4c(c3)OCO4)[C@@H](OC)O[C@@H]2CO)cc1

>  <z-score>
-1.19

$$$$
>  <compound>
CCOC(=O)C1=CCC(c2cc3ccccc3[nH]2)N(S(=O)(=O)c2ccccc2[N+](=O)[O-])C1 (centres undefined)

>  <z-score>
-1.61

$$$$
>  <compound>
COCCOC(=O)N1C(=O)[C@@]2(c3cc(C#CCNC(N)=O)ccc31)[C@H](C(=O)NC[C@H](O)c1ccccc1)[C@H]1C(=O)O[C@H](c3ccccc3)[C@H](c3ccccc3)N1[C@@H]2c1ccc(OCCO)cc1

>  <z-score>
-0.193

$$$$
>  <compound>
COc1cc2c(cc1O)C(C1CC1)N(Cc1ccc([N+](=O)[O-])o1)CC2 (centres undefined)

>  <z-score>
0.0309

$$$$
>  <compound>
CC(=O)c1ccc(C(O)C2C=CC3C(=O)NC(=O)C3N2Nc2ccc(Cl)cc2Cl)cc1 (centres undefined)

>  <z-score>
0.863

$$$$
>  <compound>
[N-]=[N+]=NCc1ccccc1C[C@]1(C(=O)N2CCOCC2)N=C(c2ccc(OCCCO)cc2)O[C@H]1c1ccccc1CN=[N+]=[N-]

>  <z-score>
0.233

$$$$
>  <compound>
CC(=O)NCCCC[C@@H]1NC(=O)[C@H]2C[C@@H](C(=O)NCCCCCC[N+](C)(C)C)[C@@H](c3ccc(O)cc3)N2C1=O

>  <z-score>
-0.251

$$$$
